# Measurement Target: T1, recombinant soluble cynomolgus TREM2 protein (cynomolgus TREM2 extracellular domain coupled to a Flag/His tag) (cynomolgus, UniProt A0A2K5UY34 49-204)
# T1 construct: extracellular domain; also called Cyno TREM2
# T1 sequence: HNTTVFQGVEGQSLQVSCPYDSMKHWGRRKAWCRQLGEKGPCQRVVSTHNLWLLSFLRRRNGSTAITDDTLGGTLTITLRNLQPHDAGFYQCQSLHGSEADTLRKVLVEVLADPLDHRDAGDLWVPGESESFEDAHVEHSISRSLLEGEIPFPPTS
# Assay Text: Octet BLI, antibody on anti-human Fc sensor, 25 C
Outcome Measure: pKd
pKd is a log-scale quantity: -log10 of the concentration expressed in molar.

Exercise: Kindly indicate its recorded pKd. Item: 13E7 (antibody, human IgG2, V domains shown, human IgG2 from hybridoma) VH: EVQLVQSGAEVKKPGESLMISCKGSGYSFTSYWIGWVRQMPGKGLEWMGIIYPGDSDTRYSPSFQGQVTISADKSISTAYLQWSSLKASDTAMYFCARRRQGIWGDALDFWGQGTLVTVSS VL: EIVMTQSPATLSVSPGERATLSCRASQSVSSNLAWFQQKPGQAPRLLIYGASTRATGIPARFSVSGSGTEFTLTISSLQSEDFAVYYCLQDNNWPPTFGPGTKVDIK
Solution: 8.06

Exercise: Kindly indicate its recorded pKd. Item: 4C5 (antibody, V domains shown, human IgG2 from hybridoma) VH: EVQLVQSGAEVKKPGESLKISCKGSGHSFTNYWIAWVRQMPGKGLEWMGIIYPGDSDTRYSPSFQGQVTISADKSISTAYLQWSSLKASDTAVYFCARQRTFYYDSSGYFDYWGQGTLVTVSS VL: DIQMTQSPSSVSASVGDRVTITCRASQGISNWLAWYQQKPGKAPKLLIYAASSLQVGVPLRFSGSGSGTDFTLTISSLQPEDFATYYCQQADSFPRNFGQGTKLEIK
Solution: 8.44

Exercise: Kindly indicate its recorded pKd. Item: 5E3 (antibody, human IgG2, V domains shown, human IgG2 from hybridoma) VH: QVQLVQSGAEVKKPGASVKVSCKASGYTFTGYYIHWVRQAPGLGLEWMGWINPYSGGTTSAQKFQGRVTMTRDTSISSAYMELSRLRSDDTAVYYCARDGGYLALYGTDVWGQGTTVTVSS VL: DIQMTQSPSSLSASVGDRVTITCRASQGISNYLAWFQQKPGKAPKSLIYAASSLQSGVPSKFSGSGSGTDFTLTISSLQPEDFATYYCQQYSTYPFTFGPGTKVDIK
Solution: 8.80

These data points were gathered from patent US20220204611A1.
